- Tested system: T1, sIL-6R (soluble IL-6 receptor; SBH Sciences) (human, UniProt P08887 20-365)
- T1 construct: also called human IL-6R
- T1 sequence: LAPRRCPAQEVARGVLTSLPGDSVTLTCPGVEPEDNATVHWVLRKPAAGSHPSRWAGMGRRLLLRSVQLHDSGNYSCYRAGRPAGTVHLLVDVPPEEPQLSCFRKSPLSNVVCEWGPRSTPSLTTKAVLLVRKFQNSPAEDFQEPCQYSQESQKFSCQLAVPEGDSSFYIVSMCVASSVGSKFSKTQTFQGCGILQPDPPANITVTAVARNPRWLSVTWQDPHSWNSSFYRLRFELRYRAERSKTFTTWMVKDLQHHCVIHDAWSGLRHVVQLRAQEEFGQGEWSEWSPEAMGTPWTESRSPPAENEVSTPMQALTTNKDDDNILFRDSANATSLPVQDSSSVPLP
- Test: SPR (BIAcore 3000), antibody on chip, sIL-6R analyte, 25 C
Metric name: kon (M⁻¹ s⁻¹)
Give a bare numeral; the unit M⁻¹ s⁻¹ is implied.

Use these answered entries as a reference point.
60# (antibody, human IgG1, kappa, V domains shown, also called Sample # 60) VH: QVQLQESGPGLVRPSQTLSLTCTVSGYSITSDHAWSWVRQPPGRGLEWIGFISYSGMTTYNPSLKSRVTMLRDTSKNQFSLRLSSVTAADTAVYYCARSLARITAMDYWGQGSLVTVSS VL: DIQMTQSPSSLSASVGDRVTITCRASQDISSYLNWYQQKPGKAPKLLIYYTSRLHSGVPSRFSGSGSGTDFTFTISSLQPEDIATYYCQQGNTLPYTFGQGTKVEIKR :: 224000
206# (antibody, human IgG1, kappa, V domains shown, also called Sample # 206) VH: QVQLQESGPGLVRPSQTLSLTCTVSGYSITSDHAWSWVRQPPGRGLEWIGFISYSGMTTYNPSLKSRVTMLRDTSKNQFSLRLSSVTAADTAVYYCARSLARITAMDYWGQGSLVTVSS VL: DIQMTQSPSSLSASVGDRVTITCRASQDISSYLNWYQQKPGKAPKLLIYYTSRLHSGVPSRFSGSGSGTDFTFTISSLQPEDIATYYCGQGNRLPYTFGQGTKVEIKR :: 189000

Requested field: kon. Item: 205# (antibody, human IgG1, kappa, V domains shown) VH: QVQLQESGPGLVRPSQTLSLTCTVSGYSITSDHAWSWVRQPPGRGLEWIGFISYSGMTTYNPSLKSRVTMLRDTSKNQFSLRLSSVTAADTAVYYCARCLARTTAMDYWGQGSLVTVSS VL: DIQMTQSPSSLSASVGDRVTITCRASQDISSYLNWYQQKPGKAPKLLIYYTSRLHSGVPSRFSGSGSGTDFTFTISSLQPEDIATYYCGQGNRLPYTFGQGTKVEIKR
175000
